System: SR
Assay info: NCI tumour cell line growth inhibition, 48 h
Structures can show the parent of a compound that is named as a salt. Calls of active or inactive are those of the source. Cut-off read from the data, not from the text of the source: active = GI50 up to about 1.1 µM and inactive = higher.
Permitted responses: yes (1) for active, no (0) for inactive

Some entries whose results are on file:
Ask: What is the recorded call for this compound in the test? CC(C)(C)CNC(=O)NCn1cc(-c2ccccc2)nn1
Reply: no (0)

Ask: What is the recorded call for this compound in the test? CCOC(=O)CCC(NC(=O)c1ccc(OCc2nc3cc(C(F)(F)F)ccc3nc2-c2ccccc2)cc1)C(=O)OCC (centres undefined)
Reply: no (0)

Ask: What is the recorded call for this compound in the test? C=C1CC2C[C@H](OS(=O)(=O)c3ccc(C)cc3)C(C1)N2C (some centres undefined)
Reply: no (0)

Ask: What is the recorded call for this compound in the test? Cc1nn(-c2ccccc2)c2c1C(c1ccc(Cl)cc1)NC(=S)N2 (centres undefined)
Reply: no (0)

Ask: What is the recorded call for this compound in the test? N=c1ccn2c(n1)O[C@H]1[C@H](O)[C@@H](CO)O[C@H]12 [ANCITABINE HYDROCHLORIDE]
Reply: yes (1)

Ask: What is the recorded call for this compound in the test? CCOP(=O)(OCC)/C(C#N)=C/c1c(C)[nH]c2ccccc12
Reply: no (0)

---
Ask: What is the recorded call for this compound in the test? CCCCCOC(=O)C(=O)Nc1[nH]nnc1C(N)=O
Reply: no (0)

Ask: What is the recorded call for this compound in the test? C=CC[C@H](C[C@H](C[C@H](C[C@H](C[C@H](C[C@H](C[C@H](C[C@H](C[C@H](C[C@H](CCCCC)OC)OC)OC)OC)OC)OC)OC)OC)OC)OC
Reply: no (0)

Ask: What is the recorded call for this compound in the test? CCCNCC(=O)O[C@]1(CC)C(=O)OCc2c1cc1n(c2=O)Cc2cc3ccccc3nc2-1
Reply: yes (1)
